Data provenance: ChEMBL document CHEMBL4715730

# tested system: 5-hydroxytryptamine receptor 4 (Cavia porcellus)
# test method notes: Displacement of [3H]-GR113808 from guinea pig brain 5HT4 receptor at 0.01 uM in presence of serotonin incubated for 30 mins
# Assay type: tissue-based
# condition description: filed as agonist
measured attribute: inhibition (%)

Example cases with answers are listed next.
COc1cc(N)c(Cl)cc1C(=O)CCC1CCN(CCNS(=O)(=O)c2cc(Br)ccc2Br)CC1 : 51
COc1cc(N)c(Cl)cc1C(=O)CCC1CCN(CCNS(=O)(=O)c2ccc(NC(C)=O)cc2)CC1 : 56
COc1cc(N)c(Cl)cc1C(=O)CCC1CCN(CCNS(=O)(=O)c2cc(Br)c(N)c(Br)c2)CC1 : 46
COc1ccc(S(=O)(=O)NCCCN2CCC(CCC(=O)c3cc(Cl)c(N)cc3OC)CC2)cc1 : 41
COc1ccc(S(=O)(=O)NCCN2CCC(CCC(=O)c3cc(Cl)c(N)cc3OC)CC2)cc1 : 48

I = COc1cc(N)c(Cl)cc1C(=O)CCC1CCN(CCNS(=O)(=O)c2ccc(OC)c(N3CCN(C)CC3)c2)CC1
II = COc1ccc(S(=O)(=O)NCCN2CCC(CCC(=O)c3cc(Cl)c(N)cc3OC)CC2)cc1Cl
[ask] For the two items I and II , which reports the higher inhibition value? Field: selected label. Fill in the label of the entry you choose.
[reply] I
(I: 75%, II: 41%)

* * *

# tested system: 5-hydroxytryptamine receptor 4 (Cavia porcellus, UniProt O70528)
# Sequence (O70528 whole entry): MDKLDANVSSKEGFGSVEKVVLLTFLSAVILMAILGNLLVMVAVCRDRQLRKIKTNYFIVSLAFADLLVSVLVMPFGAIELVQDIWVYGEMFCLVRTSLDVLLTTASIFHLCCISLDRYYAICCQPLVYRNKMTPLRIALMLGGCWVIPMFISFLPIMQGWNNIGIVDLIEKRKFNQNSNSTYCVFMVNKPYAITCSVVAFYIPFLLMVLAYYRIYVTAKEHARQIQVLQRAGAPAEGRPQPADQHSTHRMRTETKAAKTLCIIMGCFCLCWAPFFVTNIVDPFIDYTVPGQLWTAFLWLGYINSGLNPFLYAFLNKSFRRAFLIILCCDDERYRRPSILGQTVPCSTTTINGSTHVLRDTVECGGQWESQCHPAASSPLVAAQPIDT
# test method notes: Displacement of [3H]-GR113808 from guinea pig brain 5HT4 receptor in presence of serotonin incubated for 30 mins
# Format: tissue-based
# condition description: read-out: Ki
pKi: −log10 of the molar value.
measured attribute: pKi

COc1cc(N)c(Cl)cc1C(=O)CCC1CCN(CCNS(=O)(=O)c2cc(Br)c(N)c(Br)c2)CC1 : 8.06

I = COc1ccc(S(=O)(=O)CCCN2CCC(CCC(=O)c3cc(Cl)c(N)cc3OC)CC2)cc1
II = COc1cc(N)c(Cl)cc1C(=O)CCC1CCN(CCNS(=O)(=O)c2ccc(N)cc2)CC1
[ask] Which entry has a larger number for pKi, I or II ? Please identify the chosen entry by its label.
[reply] II
(II: 8.71, I: 7.91)

P = COc1cc(N)c(Cl)cc1C(=O)CCC1CCN(CCNS(=O)(=O)c2cc(Br)ccc2Br)CC1
Q = COc1cc(N)c(Cl)cc1C(=O)CCC1CCN(CCNS(=O)(=O)c2ccc(NC(C)=O)cc2)CC1
[ask] Among P and Q , whose measured pKi is the smaller figure? Answer by quoting the chosen item's label.
[reply] P
(P: 7.79, Q: 8.11)

* * *

# tested system: 5-hydroxytryptamine receptor 6 (Homo sapiens, UniProt P50406)
# Sequence (P50406 whole entry): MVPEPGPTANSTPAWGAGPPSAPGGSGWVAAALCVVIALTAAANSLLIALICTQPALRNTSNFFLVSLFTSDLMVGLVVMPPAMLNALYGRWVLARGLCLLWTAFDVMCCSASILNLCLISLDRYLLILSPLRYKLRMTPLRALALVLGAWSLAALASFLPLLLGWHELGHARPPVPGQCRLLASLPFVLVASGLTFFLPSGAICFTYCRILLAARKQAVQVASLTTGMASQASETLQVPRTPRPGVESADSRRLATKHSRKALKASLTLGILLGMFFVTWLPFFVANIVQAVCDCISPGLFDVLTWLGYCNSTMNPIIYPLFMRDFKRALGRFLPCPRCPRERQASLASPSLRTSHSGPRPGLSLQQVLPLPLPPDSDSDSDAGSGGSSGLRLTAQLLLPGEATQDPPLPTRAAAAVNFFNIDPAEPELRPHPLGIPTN
# test method notes: Displacement of [3H]-LSD from human 5-HT6 receptor expressed in HEK293 cells at 1 uM in presence of serotonin incubated for 60 mins
# Type: cell-based
# condition description: filed as antagonist
measured attribute: inhibition (%)

COc1ccc(S(=O)(=O)NCCN2CCC(CCC(=O)c3cc(Cl)c(N)cc3OC)CC2)cc1 : 52

P = COc1ccc(S(=O)(=O)NCCN2CCC(CCC(=O)c3cc(Cl)c(N)cc3OC)CC2)c(OC)c1
Q = COc1cc(N)c(Cl)cc1C(=O)CCC1CCN(CCNS(=O)(=O)c2cc(Br)c(N)c(Br)c2)CC1
[ask] Compare the recorded inhibition of P and Q ; state which is larger. Your choice should be expressed through its label.
[reply] Q
(Q: 83%, P: 45%)

A = COc1cc(N)c(Cl)cc1C(=O)CCC1CCN(CCNS(=O)(=O)c2ccc(N)cc2)CC1
B = COc1ccc(S(=O)(=O)NCCN2CCC(CCC(=O)c3cc(Cl)c(N)cc3OC)CC2)cc1Br
[ask] // select label with min value of measured inhibition from [ A , B ] Please identify the chosen entry by its label.
[reply] A

* * *

# tested system: 5-hydroxytryptamine receptor 6 (Homo sapiens, UniProt P50406)
# test method notes: Displacement of [3H]-LSD from human 5-HT6 receptor expressed in HEK293 cells at 0.01 uM in presence of serotonin incubated for 60 mins
# Format: cell-based
Active and inactive are the calls of the source. No cut-off for these calls is given here.
measured attribute: inhibition

Field: example entries. Status: answers known.
COc1ccc(S(=O)(=O)NCCN2CCC(CCC(=O)c3cc(Cl)c(N)cc3OC)CC2)cc1Cl : 20%
COc1cc(N)c(Cl)cc1C(=O)CCC1CCN(CCNS(=O)(=O)c2ccc(C)cc2)CC1 : inactive
COc1cc(N)c(Cl)cc1C(=O)CCC1CCN(CCNS(=O)(=O)c2ccc3c(c2)N(C)CCO3)CC1 : inactive
COc1cc(N)c(Cl)cc1C(=O)CCC1CCN(CCNS(=O)(=O)c2ccc3c(c2)NC(=O)CO3)CC1 : inactive
COc1cc(N)c(Cl)cc1C(=O)CCC1CCN(CCNS(=O)(=O)c2ccc(OC)c(N3CCN(C)CC3)c2)CC1 : 4%

[ask] Find the recorded inhibition belonging to `COc1ccc(S(=O)(=O)NCCN2CCC(CCC(=O)c3cc(Cl)c(N)cc3OC)CC2)c(OC)c1` and report it.
[reply] inactive
